Entries and their Inhibitory rate on tyrosinase
- Tested on: Tyrosinase
- COND: 5 mmol/L; after 5 min reaction

| RESIDUE CODES | Inhibitory rate on tyrosinase, % |
| --- | --- |
| NLDSLGGANF [BommoOKB_type1] | -4.02 |
| FYHLYGQNFLDIDSPVSSFD [BommoOKA_type3] | 9.37 |
| EARHSGYLPYQMF [BommoOKA_type4] | 11.28 |
| NFDEIDRSSLNTFV [BommoOKA_type1] | 4.02 |
| YDYISPYG [BommoOKA_type5] | 5.93 |

---

- Test system: Tyrosinase
- COND: 0.1 mmol/L; after 5 min reaction

| RESIDUE CODES | Inhibitory rate on tyrosinase, % |
| --- | --- |
| FYHLYGQNFLDIDSPVSSFD [BommoOKA_type3] | 6.50 |
| NFDEIDRSSLNTFV [BommoOKA_type1] | 2.87 |
| NLDSLGGANF [BommoOKB_type1] | 8.6 |
| NFDEIDRSSMPFPYAI [BommoOKA_type2] | 5.16 |
| YDYISPYG [BommoOKA_type5] | -0.19 |
